// provenance: patent US10231979B2

Overview of recorded Contractile Force (% of baseline), Drug for various compounds
test system: uterine horns from wild-type (WT) C57BL/6J female mice; experiment: Spontaneous uterine contractility, isolated uterine horns in tissue organ bath; details: spontaneous contractility; maximal treatment dose; AUC as % of baseline AUC

compound | Contractile Force (% of baseline), Drug
CC(=O)[C@H]1CC[C@H]2[C@@H]3CCC4=CC(=O)CC[C@]4(C)[C@H]3CC[C@]12C | 43.9% of baseline
CCCCCC(=O)O[C@]1(C(C)=O)CC[C@H]2[C@@H]3CCC4=CC(=O)CC[C@]4(C)[C@H]3CC[C@@]21C [17-OHPC, 4-pregnen-17-ol-3,20-dione caproate, reference compound] | 50.4% of baseline
CC(=O)[C@H]1[C@H](O)C[C@H]2[C@@H]3CCC4=CC(=O)CC[C@]4(C)[C@H]3CC[C@@]21C | 37.2% of baseline
CC(=O)[C@H]1CC[C@H]2[C@@H]3CCC4=CC(=O)[C@H](O)C[C@]4(C)[C@H]3CC[C@]12C | 37.9% of baseline
CC(=O)[C@H]1CC[C@H]2[C@@H]3C[C@@H](O)C4=CC(=O)CC[C@]4(C)[C@H]3CC[C@]12C | 45% of baseline
